The origin of these recorded values is patent USRE40594E1.

test system: bovine taste receptor cell membranes (taste receptors) with transducin; test: G protein activation assay (trypsin sensitivity): activation of transducin by bitter tastant plus taste membranes; format: biochemical, Bovine (Bos primigenius); conditions: DEN 5.0 mM; test compound 5.0 mM; FIG. 2
Quantity kind: inhibition of taste membrane-dependent activation of transducin by DEN (AMP analogues)

The examples below pair each entry with its known result.
Compound: Nc1ncnc2c1ncn2[C@@H]1O[C@H](COC(=O)CCC(=O)O)[C@@H](O)[C@H]1O [ASU, adenosine 5′-succinate]
Value observed: inhibited
--
Compound: Cc1cn([C@H]2C[C@H](O)[C@@H](COP(=O)(O)O)O2)c(=O)[nH]c1=O [TMP, thymidine 5′-monophosphate]
Value observed: inhibited
--
Compound: Nc1ncnc2c1ncn2[C@@H]1O[C@H](COP(=O)(O)OP(=O)(O)O)[C@@H](O)[C@H]1O [ADP, adenosine 5′ diphosphate]
Value observed: potently inhibited
--
Compound: Nc1ncnc2c1ncn2[C@@H]1O[C@H](CO)[C@@H](OP(=O)(O)O)[C@H]1O [3′AMP, adenosine 3′ monophosphate]
Value observed: potently inhibited
--
Compound: Nc1ncnc2c1ncn2[C@@H]1O[C@H](COS(=O)(=O)O)[C@@H](O)[C@H]1O [AMS, adenosine 5′-monosulfate]
Value observed: not inhibited

Here is the next item to consider.
Problem: Fill in the recorded inhibition of taste membrane-dependent activation of transducin by DEN (AMP analogues) for this compound, with bovine taste receptor cell membranes (taste receptors) with transducin as test system: Cn1c(=O)c2[nH]cnc2n(C)c1=O [THE, theophylline, reference compound]
Result: not inhibited
